B1: TPR t1 (parent)
chain: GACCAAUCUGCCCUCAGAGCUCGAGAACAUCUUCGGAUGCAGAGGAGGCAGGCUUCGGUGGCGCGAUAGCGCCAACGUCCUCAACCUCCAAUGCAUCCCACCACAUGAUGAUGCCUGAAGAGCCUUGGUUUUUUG

Variants of: B1
protocol: polymerase ribozyme fitness, log enrichment relative to wild type (log ratio); higher = more active; in vitro selection for triplet polymerase activity
readout.type: polymerase ribozyme fitness (log ratio)
Just the number.

Which polymerase ribozyme fitness (log ratio) is reported for this variant? G45U C72G A91C
-2.3

Which polymerase ribozyme fitness (log ratio) is reported for this variant? C22G A29C G110U
-4.24

Which polymerase ribozyme fitness (log ratio) is reported for this variant? G61A C89A
-1.25

Which polymerase ribozyme fitness (log ratio) is reported for this variant? A43U C123A G128C
-2.79

Which polymerase ribozyme fitness (log ratio) is reported for this variant? C34A U54A G69U A121G
1.52

Which polymerase ribozyme fitness (log ratio) is reported for this variant? C15A C72A
-1.94

Which polymerase ribozyme fitness (log ratio) is reported for this variant? A37C G44A A46C G47U U59C
-6.19

Which polymerase ribozyme fitness (log ratio) is reported for this variant? U9G C34A G120C
-0.929

Which polymerase ribozyme fitness (log ratio) is reported for this variant? C11G A66G C114U C124G
-3.83

Which polymerase ribozyme fitness (log ratio) is reported for this variant? C28U C64U G93U
-3.83

Which polymerase ribozyme fitness (log ratio) is reported for this variant? G45U G47A G63U C82G G93U G117C A119G
-7.49

Which polymerase ribozyme fitness (log ratio) is reported for this variant? C40U G61U C97A
-5.61

Which polymerase ribozyme fitness (log ratio) is reported for this variant? C49U C124U
1.03

Which polymerase ribozyme fitness (log ratio) is reported for this variant? G45A G93U
-1.91

Which polymerase ribozyme fitness (log ratio) is reported for this variant? A6C G17U U96G C98U C123U
-6.92

Which polymerase ribozyme fitness (log ratio) is reported for this variant? C13G C80A C82G U130C
-4.35

Which polymerase ribozyme fitness (log ratio) is reported for this variant? C11G U21A G77A
-0.311

Which polymerase ribozyme fitness (log ratio) is reported for this variant? C20U A43G U78G U87A C89G
-5.4

Which polymerase ribozyme fitness (log ratio) is reported for this variant? C56U A83U
0.108

Which polymerase ribozyme fitness (log ratio) is reported for this variant? C62A G77U C114G
-4.81

Which polymerase ribozyme fitness (log ratio) is reported for this variant? A16U C73U A121C
0.586

Which polymerase ribozyme fitness (log ratio) is reported for this variant? A2G U7A C12A G39A C82A G122A
-0.0716
